Hey, just so you know, these numbers are from ChEMBL document CHEMBL1201862.

Parameter: EC50. Scope: all listed entries.
- TESTED_ON: Voltage-dependent T-type calcium channel subunit alpha-1H (Homo sapiens)
- Sequence (O95180 whole entry): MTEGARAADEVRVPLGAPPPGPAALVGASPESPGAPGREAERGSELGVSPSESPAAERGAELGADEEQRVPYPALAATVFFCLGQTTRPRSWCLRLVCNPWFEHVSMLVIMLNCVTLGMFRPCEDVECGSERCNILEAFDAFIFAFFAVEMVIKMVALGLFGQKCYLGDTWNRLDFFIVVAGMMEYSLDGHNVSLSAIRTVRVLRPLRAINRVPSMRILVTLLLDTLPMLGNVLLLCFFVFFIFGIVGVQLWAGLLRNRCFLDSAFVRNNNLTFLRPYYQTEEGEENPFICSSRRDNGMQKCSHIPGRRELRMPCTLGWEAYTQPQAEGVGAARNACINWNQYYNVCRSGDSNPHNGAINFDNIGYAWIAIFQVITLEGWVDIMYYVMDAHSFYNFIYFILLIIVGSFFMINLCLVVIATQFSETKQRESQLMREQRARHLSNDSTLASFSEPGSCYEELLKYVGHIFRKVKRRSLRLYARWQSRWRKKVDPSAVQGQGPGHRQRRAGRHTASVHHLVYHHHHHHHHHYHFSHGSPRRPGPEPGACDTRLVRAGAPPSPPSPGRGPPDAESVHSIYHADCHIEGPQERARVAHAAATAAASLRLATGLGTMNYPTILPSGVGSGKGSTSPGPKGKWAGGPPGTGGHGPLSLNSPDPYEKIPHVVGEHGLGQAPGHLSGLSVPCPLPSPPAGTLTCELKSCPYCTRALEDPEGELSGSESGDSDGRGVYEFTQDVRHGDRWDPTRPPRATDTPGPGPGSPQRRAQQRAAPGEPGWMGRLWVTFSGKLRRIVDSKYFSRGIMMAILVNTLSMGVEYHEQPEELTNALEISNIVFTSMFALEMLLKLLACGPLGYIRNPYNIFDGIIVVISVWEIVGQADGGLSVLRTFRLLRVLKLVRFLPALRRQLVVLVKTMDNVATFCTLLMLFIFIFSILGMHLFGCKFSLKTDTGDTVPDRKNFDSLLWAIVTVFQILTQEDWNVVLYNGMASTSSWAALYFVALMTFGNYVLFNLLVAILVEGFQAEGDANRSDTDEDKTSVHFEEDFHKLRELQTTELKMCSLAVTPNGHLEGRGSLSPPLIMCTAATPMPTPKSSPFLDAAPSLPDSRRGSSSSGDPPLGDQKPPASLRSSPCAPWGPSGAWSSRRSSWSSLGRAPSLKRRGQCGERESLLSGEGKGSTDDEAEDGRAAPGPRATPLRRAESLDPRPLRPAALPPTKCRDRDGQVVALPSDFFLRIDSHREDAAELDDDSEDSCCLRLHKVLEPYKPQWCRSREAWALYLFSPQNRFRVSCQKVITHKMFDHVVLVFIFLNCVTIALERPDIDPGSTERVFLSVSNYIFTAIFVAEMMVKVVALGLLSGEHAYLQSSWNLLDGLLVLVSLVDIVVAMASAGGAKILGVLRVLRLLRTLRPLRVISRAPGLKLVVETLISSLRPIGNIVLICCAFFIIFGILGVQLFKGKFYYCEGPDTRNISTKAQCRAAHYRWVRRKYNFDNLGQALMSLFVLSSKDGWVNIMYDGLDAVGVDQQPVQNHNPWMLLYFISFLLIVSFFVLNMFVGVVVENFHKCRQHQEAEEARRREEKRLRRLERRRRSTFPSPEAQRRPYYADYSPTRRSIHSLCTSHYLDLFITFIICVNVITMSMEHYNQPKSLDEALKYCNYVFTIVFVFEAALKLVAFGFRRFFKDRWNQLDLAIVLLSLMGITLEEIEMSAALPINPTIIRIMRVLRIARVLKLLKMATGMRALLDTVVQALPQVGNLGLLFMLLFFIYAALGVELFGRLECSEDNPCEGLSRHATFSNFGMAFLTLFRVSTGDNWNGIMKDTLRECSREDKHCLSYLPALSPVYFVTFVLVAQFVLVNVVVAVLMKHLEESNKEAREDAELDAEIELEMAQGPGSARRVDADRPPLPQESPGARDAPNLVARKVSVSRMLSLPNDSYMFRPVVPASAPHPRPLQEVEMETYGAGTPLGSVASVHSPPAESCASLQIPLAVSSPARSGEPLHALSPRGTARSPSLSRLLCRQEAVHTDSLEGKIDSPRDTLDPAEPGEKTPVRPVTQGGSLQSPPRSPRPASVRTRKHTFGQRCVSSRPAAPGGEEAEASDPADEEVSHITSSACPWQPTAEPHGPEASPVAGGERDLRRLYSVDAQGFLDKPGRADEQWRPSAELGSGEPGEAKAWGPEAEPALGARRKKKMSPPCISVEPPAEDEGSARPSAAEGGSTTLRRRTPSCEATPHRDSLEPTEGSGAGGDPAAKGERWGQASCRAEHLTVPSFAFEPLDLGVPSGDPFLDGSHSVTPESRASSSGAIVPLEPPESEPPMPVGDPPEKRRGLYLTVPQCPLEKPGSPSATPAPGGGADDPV
- Format: functional
Active and inactive are the calls of the source.

{"MOLECULE": "O=C(CN(Cc1ccccc1)C(=O)c1cc2c(s1)CCC2)NCc1cccs1", "EC50": "5.32 µM (active)"}
{"MOLECULE": "O=C(Nc1ccccc1)N1CCCC(c2nc(-c3ccc(F)cc3)no2)C1 (stereo not given)", "EC50": "1.52 µM (active)"}
{"MOLECULE": "Cc1[nH]c2ccccc2c1C1C(c2ccccc2)=NN=C(C(C)C)N1O (stereo not given)", "EC50": "16.1 µM (active)"}

Case Nc1c(C(=O)Nc2ccccc2F)sc2nc(Cc3ccccc3)cc(C(F)(F)F)c12 , Voltage-dependent T-type calcium channel subunit alpha-1H (Homo sapiens), EC50 recorded as 2.71 µM (active)

Case S=C(NC1CCCCC1)N(CCc1nc2ccccc2[nH]1)C1CCCC1 , Voltage-dependent T-type calcium channel subunit alpha-1H (Homo sapiens), EC50 recorded as 5.18 µM (active)
